Reported activity values for the following molecules.
Biological target: Tumor necrosis factor receptor superfamily member 10B (Homo sapiens) (UniProt O14763)
Sequence (O14763 whole entry, looked up): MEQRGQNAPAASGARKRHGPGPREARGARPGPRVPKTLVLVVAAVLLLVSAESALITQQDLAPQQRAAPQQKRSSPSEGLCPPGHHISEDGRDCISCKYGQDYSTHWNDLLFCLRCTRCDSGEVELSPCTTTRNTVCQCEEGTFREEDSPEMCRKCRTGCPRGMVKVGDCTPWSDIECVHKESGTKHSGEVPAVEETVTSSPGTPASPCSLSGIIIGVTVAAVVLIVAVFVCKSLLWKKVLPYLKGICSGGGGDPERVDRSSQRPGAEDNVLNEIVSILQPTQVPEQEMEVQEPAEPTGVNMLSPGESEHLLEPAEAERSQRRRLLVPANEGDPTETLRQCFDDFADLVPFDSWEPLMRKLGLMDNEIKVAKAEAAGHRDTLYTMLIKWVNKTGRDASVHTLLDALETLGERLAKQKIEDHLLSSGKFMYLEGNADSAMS
Experiment: caspase-8 TRAIL sensitization, hit retest, confirmation, cell-based, NB7+caspase-8, with/without TRAIL, luminescence panel (AID 651596)
Details: NB7 neuroblastoma + caspase-8, TRAIL sensitization, luminescence viability, with TRAIL, mean of runs, at 10 µM, stronger effect = higher value
property-name: activity (%)

> print(dat)
                                   molecule  reading.unit  reported.measurement
1  C#CC(=O)N(c1cccc(OC)c1)C(C(=O)NC1CCCC1)c1cccs1 (stereo not given)             %                  99.4
2    COc1cccc(C(=O)Cn2c(=N)n(C)c3ccccc32)c1             %                  65.8
3  C#CC(=O)N(c1cc(OC)ccc1OC)C(C(=O)NC1CCCC1)c1cccs1 (stereo not given)             %                  98.2
4  CC(C)(C)OC(=O)NCCCCCc1cn([C@@H](CO)C(=O)NCCCCCCCCCCC(=O)N2CCN(C(=O)OC(C)(C)C)CC2)nn1             %                  61.7
5  CC(C)(C)OC(=O)[C@H](Cc1ccccc1)NC(=O)c1[nH]cnc1C(=O)Nc1ccccc1F             %                  54.9

Where do these numbers come from? They come from PubChem BioAssay.
